Recorded IC50 by entry
target: Kv1.3 potassium channel (Homo sapiens); experiment: Kv1.3 potassium channel blocker activity, automated whole-cell patch clamp (Patchliner); details: CHO-K1 cells stably expressing Kv1.3; whole cell current inhibition; read-out: Kv1.3_IC50

| MOLECULE | IC50 |
| --- | --- |
| NC(c1cc(Cl)c(Cl)cc1O)C1CCN(C(=O)[C@@H]2CCNC2)CC1 (stereo partly shown) | < 0.5 µM |
| NC(=O)C(=O)N1CCC([C@@H](N)c2cc(Cl)c(Cl)cc2O)CC1 | < 0.5 µM |
| NC(c1cc(Cl)c(Cl)cc1O)C1CCN(C(=O)NC2CC2)CC1 (stereo not shown) | < 10 µM |

Exam item: Provide only the value of recorded IC50 for Cc1ccc(S(=O)(=O)N2CCC(C(N)c3cc(Cl)c(Cl)cc3O)CC2)cc1 (stereo not shown)
Marked response: < 10 µM

====

biological target: Kv1.3 potassium channel (Homo sapiens, UniProt P22001); assay: Kv1.3 potassium channel blocker activity, automated whole-cell patch clamp (Patchliner); conditions: CHO-K1 cells stably expressing Kv1.3; whole cell current inhibition; read-out: Kv1.3_IC50
Sequence (P22001 whole entry): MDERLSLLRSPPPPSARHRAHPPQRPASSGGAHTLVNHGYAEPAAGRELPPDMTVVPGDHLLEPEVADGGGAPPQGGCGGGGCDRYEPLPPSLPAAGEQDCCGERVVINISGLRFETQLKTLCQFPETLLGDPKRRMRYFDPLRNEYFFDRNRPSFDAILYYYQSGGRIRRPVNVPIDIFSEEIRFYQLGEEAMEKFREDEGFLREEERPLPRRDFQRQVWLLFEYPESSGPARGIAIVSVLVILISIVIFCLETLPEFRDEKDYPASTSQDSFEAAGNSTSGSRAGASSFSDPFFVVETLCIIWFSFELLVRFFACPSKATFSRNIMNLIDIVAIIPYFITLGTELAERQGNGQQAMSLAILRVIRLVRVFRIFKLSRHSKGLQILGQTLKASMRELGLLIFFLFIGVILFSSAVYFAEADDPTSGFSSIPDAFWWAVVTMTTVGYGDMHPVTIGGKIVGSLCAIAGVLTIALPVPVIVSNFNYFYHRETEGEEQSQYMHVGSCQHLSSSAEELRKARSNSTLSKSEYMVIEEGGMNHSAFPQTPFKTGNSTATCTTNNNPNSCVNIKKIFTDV
pIC50: −log10 of the molar value.
MEASUREMENT_KIND: pIC50

| COMPOUND | pIC50 |
| --- | --- |
| Cn1ccc(N2CCC([C@@H](N)c3cc(Cl)c(Cl)cc3O)CC2)cc1=O [Compound 297] | > 6.30 |
| N[C@@H](c1cc(Cl)c(Cl)cc1O)C1CCN(C(=O)[C@H]2CNCCO2)CC1 [Compound 97, trifluoroacetic acid] | > 6.30 |
| Cc1cc(O)c([C@H](N)C2CCN(C(=O)c3ccc4c(c3)CC(=O)N4)CC2)cc1Cl [Compound 267, trifluoroacetic acid] | > 6.30 |
| CC(C)C(N)C(=O)N1CCC([C@@H](N)c2cc(Cl)c(Cl)cc2O)CC1 (stereo partly drawn) [Compound 156, trifluoroacetic acid] | > 5.00 |
| C[C@H]1CN(C(=O)[C@H](O)CO)CC[C@H]1[C@@H](N)c1cc(Cl)c(Cl)cc1O (single isomer, unassigned; isomer 2) [Compound 332] | > 6.30 |

Exam item: Consider the compound NC(c1cc(Cl)c(Cl)cc1O)C1CCN(c2ncco2)CC1 (stereo not drawn) [Compound 74] tested on Kv1.3 potassium channel (Homo sapiens, UniProt P22001); state its pIC50.
Marked response: > 5.00

Exam item: Consider the compound N[C@@H](c1cc(Cl)c(Cl)cc1O)C1CCN(C(=O)C2CNC(=O)OC2)CC1 (stereo partly drawn) [Compound 279, trifluoroacetic acid] tested on Kv1.3 potassium channel (Homo sapiens, UniProt P22001); state its pIC50.
Marked response: > 6.30

Exam item: Consider the compound N[C@@H](c1cc(Cl)c(CF)cc1O)C1CCN(C(=O)[C@H](O)CO)CC1 [Compound 226, Trifluoroacetic Acid] tested on Kv1.3 potassium channel (Homo sapiens, UniProt P22001); state its pIC50.
Marked response: > 6.30

Exam item: Consider the compound CC1(O)CC(C(=O)N2CCC([C@@H](N)c3cc(Cl)c(Cl)cc3O)CC2)C1 (stereo partly drawn) [Compound 163] tested on Kv1.3 potassium channel (Homo sapiens, UniProt P22001); state its pIC50.
Marked response: > 5.00

Exam item: Consider the compound N#Cc1cc(O)c([C@H](N)C2CCN(C(=O)[C@H](O)CO)CC2)cc1Cl [Compound 286, Trifluoroacetic Acid] tested on Kv1.3 potassium channel (Homo sapiens, UniProt P22001); state its pIC50.
Marked response: > 5.00

Exam item: Consider the compound N[C@@H](c1cc(Cl)c(Cl)cc1O)[C@H]1CCC(=O)NC1 (single isomer, unassigned; diastereoisomer 1) [Compound 38] tested on Kv1.3 potassium channel (Homo sapiens, UniProt P22001); state its pIC50.
Marked response: > 5.00

Exam item: Consider the compound N[C@@H](c1cc(Cl)c(Cl)cc1O)C1CCN(C(=O)c2ccc(=O)[nH]c2)CC1 [Compound 305, trifluoroacetic acid] tested on Kv1.3 potassium channel (Homo sapiens, UniProt P22001); state its pIC50.
Marked response: > 6.30

Exam item: Consider the compound CN1C[C@H](C(=O)N2CCC([C@@H](N)c3cc(Cl)c(Cl)cc3O)CC2)OCC1=O (single isomer, unassigned; isomer 1) [Compound 274] tested on Kv1.3 potassium channel (Homo sapiens, UniProt P22001); state its pIC50.
Marked response: > 6.30

Exam item: Consider the compound N[C@@H](c1cc(Cl)c(Cl)cc1O)C1CCN(C(=O)[C@@H]2CCC(=O)NC2)CC1 (single isomer, unassigned; isomer 2) [Compound 222] tested on Kv1.3 potassium channel (Homo sapiens, UniProt P22001); state its pIC50.
Marked response: > 6.30

Exam item: Consider the compound Oc1cc(Cl)c(Cl)cc1C(O)C1CCNCC1 (stereo not drawn) [Compound 2] tested on Kv1.3 potassium channel (Homo sapiens, UniProt P22001); state its pIC50.
Marked response: > 5.00

Exam item: Consider the compound N[C@@H](c1cc(Cl)c(Cl)cc1O)C1CCN(c2cn[nH]c2)CC1 [Compound 149, Trifluoroacetic Acid] tested on Kv1.3 potassium channel (Homo sapiens, UniProt P22001); state its pIC50.
Marked response: > 5.00

Exam item: Consider the compound COC[C@H](O)C(=O)N1CCC([C@@H](N)c2cc(Cl)c(Cl)cc2O)CC1 [Compound 181, trifluoroacetic acid] tested on Kv1.3 potassium channel (Homo sapiens, UniProt P22001); state its pIC50.
Marked response: > 6.30

Exam item: Consider the compound N[C@@H](c1cc(Cl)c(Cl)cc1O)C1CCN(C(=O)c2cnc[nH]2)CC1 [Compound 164, formic acid] tested on Kv1.3 potassium channel (Homo sapiens, UniProt P22001); state its pIC50.
Marked response: > 5.00

====

molecular target: hERG channel (Homo sapiens, UniProt Q12809); experiment: hERG electrophysiology, automated whole-cell patch clamp (Patchliner)
Sequence (Q12809 whole entry): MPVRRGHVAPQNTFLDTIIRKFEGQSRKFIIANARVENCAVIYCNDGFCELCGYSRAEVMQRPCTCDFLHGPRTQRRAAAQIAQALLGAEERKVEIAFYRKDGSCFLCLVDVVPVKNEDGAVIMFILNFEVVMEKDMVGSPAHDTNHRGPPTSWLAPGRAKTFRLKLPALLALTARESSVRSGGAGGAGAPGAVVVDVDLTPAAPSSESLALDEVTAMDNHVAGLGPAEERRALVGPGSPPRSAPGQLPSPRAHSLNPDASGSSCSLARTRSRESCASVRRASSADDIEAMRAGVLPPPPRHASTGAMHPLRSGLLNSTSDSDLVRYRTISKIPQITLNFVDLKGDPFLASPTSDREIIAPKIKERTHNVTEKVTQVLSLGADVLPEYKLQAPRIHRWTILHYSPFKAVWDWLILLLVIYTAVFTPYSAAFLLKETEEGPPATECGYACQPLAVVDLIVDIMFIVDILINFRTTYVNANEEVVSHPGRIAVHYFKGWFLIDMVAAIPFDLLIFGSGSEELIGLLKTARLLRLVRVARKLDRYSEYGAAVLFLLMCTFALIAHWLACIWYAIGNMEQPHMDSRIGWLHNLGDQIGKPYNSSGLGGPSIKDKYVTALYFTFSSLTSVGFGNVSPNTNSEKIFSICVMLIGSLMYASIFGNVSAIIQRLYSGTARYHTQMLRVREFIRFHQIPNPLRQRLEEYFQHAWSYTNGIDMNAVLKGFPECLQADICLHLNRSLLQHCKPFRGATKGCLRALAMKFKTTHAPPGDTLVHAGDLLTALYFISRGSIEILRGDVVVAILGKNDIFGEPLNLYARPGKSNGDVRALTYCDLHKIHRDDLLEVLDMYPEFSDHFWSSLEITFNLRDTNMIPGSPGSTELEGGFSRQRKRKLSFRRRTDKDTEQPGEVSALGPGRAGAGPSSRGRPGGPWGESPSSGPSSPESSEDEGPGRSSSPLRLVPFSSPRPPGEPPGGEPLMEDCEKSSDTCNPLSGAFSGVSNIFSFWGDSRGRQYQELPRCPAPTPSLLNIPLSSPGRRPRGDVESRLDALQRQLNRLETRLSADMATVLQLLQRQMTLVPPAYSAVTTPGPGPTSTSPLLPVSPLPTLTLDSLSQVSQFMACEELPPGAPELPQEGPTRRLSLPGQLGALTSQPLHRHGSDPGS
pIC50: −log10 of the molar value.
MEASUREMENT_KIND: pIC50

| MOLECULE | RESULT |
| --- | --- |
| N[C@@H](c1cc(Cl)c(Cl)cc1O)C1CCN(C(=O)[C@@H]2CCN2)CC1 | < 4.52 |
| N[C@@H](c1cc(Cl)c(Cl)cc1O)C1CCN(C(=O)C2(O)COC2)CC1 | < 4.52 |
| Oc1ccc2ccccc2c1C(O)C1CCNCC1 (centres unmarked) | < 4.52 |

Exam item: Provide only the value of recorded pIC50 for "C[C@@]1(C(=O)N2CCC([C@@H](N)c3cc(Cl)c(Cl)cc3O)CC2)CCCN1"
Marked response: < 4.52

Exam item: Provide only the value of recorded pIC50 for "N[C@@H](c1cc(Cl)c(Cl)cc1O)C1CCN(C(=O)C23CC(O)(C2)C3)CC1"
Marked response: > 4.52

Exam item: Provide only the value of recorded pIC50 for C[C@@H](N)C(=O)N1CCC([C@@H](N)c2cc(Cl)c(Cl)cc2O)CC1 (single isomer, unassigned)
Marked response: < 4.52

Exam item: Provide only the value of recorded pIC50 for "Nc1nnc(N2CCC([C@@H](N)c3cc(Cl)c(Cl)cc3O)CC2)s1"
Marked response: > 4.52

Exam item: Provide only the value of recorded pIC50 for "CCc1cc(O)c([C@H](N)C2CCN(C(=O)[C@H](O)CO)CC2)cc1Cl"
Marked response: < 4.52

Exam item: Provide only the value of recorded pIC50 for N[C@@H](c1cc(Cl)c(Cl)cc1O)C1CCN(C(=O)[C@H]2CC[C@H](O)C2)CC1 (single isomer, unassigned; isomer 1)
Marked response: > 4.52

Exam item: Provide only the value of recorded pIC50 for N[C@@H](c1cc(Cl)c(Cl)cc1O)C1CCN(C(=O)C2COCCN2)CC1 (some centres unmarked)
Marked response: < 4.52

Exam item: Provide only the value of recorded pIC50 for Oc1cc(Cl)c(Cl)cc1[C@H](O)C1CCNCC1 (single isomer, unassigned)
Marked response: < 4.52

Exam item: Provide only the value of recorded pIC50 for N[C@@H](c1cc(Cl)c(Cl)cc1O)C1CCN(C(=O)[C@H]2CNC(=O)OC2)CC1 (single isomer, unassigned; isomer 1)
Marked response: < 4.52

Exam item: Provide only the value of recorded pIC50 for "N[C@@H](c1cc(Cl)c(Cl)cc1O)C1CCN(C(=O)[C@H]2CCC(=O)N2)CC1"
Marked response: < 4.52

Exam item: Provide only the value of recorded pIC50 for "Cc1cc(O)c([C@H](N)C2CCN(C(=O)[C@@H]3CCNC3)CC2)cc1Cl"
Marked response: < 4.52

====

molecular target: hERG channel (Homo sapiens, UniProt Q12809); experiment: hERG electrophysiology, automated whole-cell patch clamp (Patchliner)
pIC50: −log10 of the molar value.
MEASUREMENT_KIND: pIC50

Example entries begin here.
| COMPOUND | pIC50 |
| --- | --- |
| Nc1cccc(N2CCC([C@@H](N)c3cc(Cl)c(Cl)cc3O)CC2)n1 [Compound 146, Trifluoroacetic Acid] | > 4.52 |
| N[C@@H](c1cc2ccccc2cc1O)C1CCN(C(=O)[C@H](O)CO)CC1 [Compound 189, Trifluoroacetic Acid] | < 4.52 |

Exam item: Provide only the value of recorded pIC50 for CC1CN(C(=O)[C@H](O)CO)CCC1[C@@H](N)c1cc(Cl)c(Cl)cc1O (single isomer, unassigned; isomer 1) [Compound 331]
Marked response: < 4.52

Exam item: Provide only the value of recorded pIC50 for N[C@@H](c1cc(Cl)c(Cl)cc1O)C1CCN(S(=O)(=O)CCO)CC1 [Compound 145, Trifluoroacetic Acid]
Marked response: > 4.52

Exam item: Provide only the value of recorded pIC50 for CC(=O)N[C@H](c1cc(Cl)c(Cl)cc1O)C1CCNCC1 (single isomer, unassigned) [Compound 10]
Marked response: < 4.52

Exam item: Provide only the value of recorded pIC50 for N[C@@H](c1cc(Cl)c(Cl)cc1O)C1CCN(C(=O)C2CC3(CC(O)C3)C2)CC1 (some centres unmarked) [Compound 320, trifluoroacetic acid]
Marked response: > 4.52

Exam item: Provide only the value of recorded pIC50 for Cc1cc(O)c([C@H](N)C2CCN(C(=O)c3ccc4nncn4c3)CC2)cc1Cl [Compound 242, trifluoroacetic acid]
Marked response: < 4.52

Exam item: Provide only the value of recorded pIC50 for Cc1cc(O)c([C@H](N)C2CCN(C(=O)c3ccc(=O)[nH]c3)CC2)cc1Cl [Compound 228]
Marked response: < 4.52

Exam item: Provide only the value of recorded pIC50 for N[C@@H](c1cc(Cl)c(Cl)cc1O)C1CCN(C(=O)[C@@H]2CNCCO2)CC1 [Compound 99]
Marked response: < 4.52

Exam item: Provide only the value of recorded pIC50 for N[C@@H](c1cc(Cl)c(Cl)cc1O)C1CCN(c2ccc(O)nc2)CC1 [Compound 302]
Marked response: < 4.52

Exam item: Provide only the value of recorded pIC50 for C[C@H](N)C(=O)N1CCC([C@@H](N)c2cc(Cl)c(Cl)cc2O)CC1 (single isomer, unassigned) [Compound 76]
Marked response: < 4.52

Exam item: Provide only the value of recorded pIC50 for N[C@@H](c1cc(Cl)c(Cl)cc1O)C1CCN(C(=O)[C@@H]2COCCN2)CC1 [Compound 195]
Marked response: < 4.52

Exam item: Provide only the value of recorded pIC50 for Cc1cc(O)c([C@H](N)C2CCN(C(=O)c3ccc4c(c3)CNC4=O)CC2)cc1Cl [Compound 324, trifluoroacetic acid]
Marked response: < 4.52

Exam item: Provide only the value of recorded pIC50 for N[C@@H](c1cc(Cl)c(Cl)cc1O)C1CCN(C(=O)[C@@H]2CCNC2)CC1 (single isomer, unassigned) [Compound 80]
Marked response: < 4.52

Exam item: Provide only the value of recorded pIC50 for N[C@@H](c1cc(Cl)c(Cl)cc1O)C1CCN(C(=O)C2(F)CNC2)CC1 [Compound 114]
Marked response: < 4.52

Exam item: Provide only the value of recorded pIC50 for NCC(=O)N1CCC([C@@H](N)c2cc(Cl)c(Cl)cc2O)CC1 [Compound 92, Trifluoroacetic Acid]
Marked response: < 4.52

Exam item: Provide only the value of recorded pIC50 for NC(c1cc(Cl)c(Cl)cc1O)C1CNC1 (centres unmarked) [Compound 52, Trifluoroacetic Acid]
Marked response: < 4.52

Exam item: Provide only the value of recorded pIC50 for N[C@@H](c1c(O)cc(Cl)c(Cl)c1Cl)C1CCN(C(=O)[C@H](O)CO)CC1 [Compound 188, Trifluoroacetic Acid]
Marked response: < 4.52

Exam item: Provide only the value of recorded pIC50 for CC(=O)N1CCC(C(N)c2cc(Cl)c(Cl)cc2O)CC1 (centres unmarked) [Compound 9]
Marked response: < 4.52
